testDescription: Pharmacokinetics, single dose administration
Format: in vivo
conditionSummary: plasma, po; single dose 20 mg/kg, microsuspension in oil; read-out: Plasma level one hour after oral administration
measureName: concentration at 1 h (ng/mL)

> print(dat)
                            structurestring  result
1  CCCCOc1c(\C(C)=C/C=C/C(C)=C/C(=O)O)cc(C(C)(C)C)cc1C(C)(C)C     480

* * *

// pIC50 collected for RXRγ (Homo sapiens)
pIC50: −log10 of the molar value.
measureName: pIC50

> print(dat)
                                   compound       measuredtarget  result
1  CC1=C(/C=C/C2=C(/C=C/C(C)=C/C(=O)O)CCCCC2)C(C)(C)CCC1 [Compound 1]  RXRγ (Homo sapiens)    6.82
2  C/C(=C/C=C/C(C)=C/C(=O)O)c1cc2c(cc1C)C(C)(C)CCCC2 [Compound 13]  RXRγ (Homo sapiens)    6.83
3  Cc1cc2c(cc1C1(c3ccc(C(=O)O)cn3)CC1)C(C)(C)CCC2(C)C [Compound 3, reference compound]  RXRγ (Homo sapiens)    7.05
4  CCCCOc1c(\C(C)=C/C=C/C(C)=C/C(=O)O)cc(C(C)(C)C)cc1C(C)(C)C [Compound 15]  RXRγ (Homo sapiens)    7.33

* * *

In this section we review reported pEC50 values for a set of molecules.
measuredTarget: RXRα (Homo sapiens, UniProt P19793)
Sequence (P19793 whole entry): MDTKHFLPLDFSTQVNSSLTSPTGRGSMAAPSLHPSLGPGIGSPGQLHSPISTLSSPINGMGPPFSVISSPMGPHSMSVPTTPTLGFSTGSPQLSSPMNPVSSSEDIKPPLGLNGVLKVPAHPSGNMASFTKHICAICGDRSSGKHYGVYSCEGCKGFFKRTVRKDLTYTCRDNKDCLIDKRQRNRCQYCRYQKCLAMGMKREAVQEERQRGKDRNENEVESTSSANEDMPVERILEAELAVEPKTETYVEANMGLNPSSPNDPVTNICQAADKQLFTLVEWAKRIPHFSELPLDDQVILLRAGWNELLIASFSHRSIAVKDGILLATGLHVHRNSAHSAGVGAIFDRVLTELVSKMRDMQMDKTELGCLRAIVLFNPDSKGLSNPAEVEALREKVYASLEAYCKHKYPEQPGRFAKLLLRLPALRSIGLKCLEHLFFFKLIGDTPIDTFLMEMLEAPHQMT
testDescription: Retinoid activation assay, RXRα (Schneider SL-3 cells, luciferase reporter)
conditionSummary: read-out: Activation EC50 RXR α
Protocol: Full length RXR cDNA is used for transfection. As reporter system, the luciferase gene is used in a construct with three copies of a RXR response element from rat CRBP gene, (formerly RARE from betaRAR gene), fused to alcoholdehydrogenase gene promoter in the plasmid pGL2-basic. Schneider SL-3 cells from Drosophila are transiently transfected 3-4 h before the experiment by the Ca-phosphate-DNA coprecipitation method. […]
pEC50: −log10 of the molar value.
measureName: pEC50

> print(dat)
                                    molecule  sign  result
 1  CCOc1c([C@@H]2C[C@@H]2/C=C/C(C)=C/C(=O)O)cc(C(C)(C)C)cc1C(C)(C)C (racemic)     ≤    5.00
 2  CC(/C=C/c1ccccc1-c1ccc2c(c1)C(C)(C)CCC2(C)C)=C\C(=O)O     =    8.22
 3  CC1=C(/C=C/C2=C(/C=C/C(C)=C/C(=O)O)CCCCC2)C(C)(C)CCC1     =    8.85
 4  CCC1(CC)CCC(C)(C)c2cc(\C(C)=C/C=C/C(C)=C/C(=O)O)ccc21     ≤    5.00
 5  CCCCCCCOc1c(\C(C)=C/C=C/C(C)=C/C(=O)O)cc(C(C)C)cc1C(C)C     ≤    5.00
 6  CC1=C(C#CC2=C(/C=C/C(C)=C/C(=O)O)CCCCC2)C(C)(C)CCC1     ≤    5.00
 7  CCCCOc1c(\C(C)=C/C=C/C(C)=C/C(=O)O)cc(C(C)(C)C)cc1C(C)(C)C     ≤    5.00
 8  CC1=C(/C=C/C2=C(/C=C/C(C)=C/C(=O)O)CCC2)C(C)(C)CCC1     =    8.22
 9  CC(/C=C/[C@@H]1C[C@@H]1c1ccc2c(c1)C(C)(C)CCC2(C)C)=C\C(=O)O (stereo in doubt)     =    8.59
10  CC(/C=C/[C@@H]1C[C@@H]1c1ccc2c(c1)C(C)(C)CCC2(C)C)=C\C(=O)O (racemic)     =    8.46
11  CCCOc1cc2c(cc1[C@@H]1C[C@@H]1/C=C/C(C)=C/C(=O)O)C(C)(C)CCC2(C)C (racemic)     <    5.00
12  CC(/C=C/C1=C(c2ccc3c(c2)C(C)(C)CCC3(C)C)CCCC1)=C\C(=O)O     =    7.72
13  CCOc1c(\C(C)=C/C=C/C(C)=C/C(=O)O)cc(C(C)(C)C)cc1C(C)(C)C     ≤    5.00
14  CCCOc1c([C@@H]2C[C@@H]2/C=C/C(C)=C/C(=O)O)cc(C(C)(C)C)cc1C(C)(C)C (racemic)     ≤    5.00
15  CC(/C=C/C1=C(c2ccc3c(c2)C(C)(C)CCC3(C)C)CCC1)=C\C(=O)O     =    8.05
16  C/C(=C/C=C/C(C)=C/C(=O)O)c1cc2c(cc1C)C(C)(C)CCCC2     =    8.82

* * *

Reported values of pEC50 for individual entries
measuredTarget: RXRβ (Homo sapiens, UniProt P28702)
Construct: Full length RXR cDNA is used for transfection
Sequence (P28702 whole entry): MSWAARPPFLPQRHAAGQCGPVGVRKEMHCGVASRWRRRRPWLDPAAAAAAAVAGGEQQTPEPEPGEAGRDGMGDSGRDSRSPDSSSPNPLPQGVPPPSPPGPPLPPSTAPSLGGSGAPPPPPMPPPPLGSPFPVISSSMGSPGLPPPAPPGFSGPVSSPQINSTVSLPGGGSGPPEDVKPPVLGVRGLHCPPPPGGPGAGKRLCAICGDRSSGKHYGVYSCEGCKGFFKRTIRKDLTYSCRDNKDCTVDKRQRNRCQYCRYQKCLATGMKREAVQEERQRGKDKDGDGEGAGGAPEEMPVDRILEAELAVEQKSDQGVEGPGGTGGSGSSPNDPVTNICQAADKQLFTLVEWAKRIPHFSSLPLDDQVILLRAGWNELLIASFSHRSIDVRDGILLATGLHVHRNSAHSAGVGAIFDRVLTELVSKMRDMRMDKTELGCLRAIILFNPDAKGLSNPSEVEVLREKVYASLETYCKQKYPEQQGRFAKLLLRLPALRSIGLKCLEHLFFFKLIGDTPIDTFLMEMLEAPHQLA
testDescription: Retinoid activation assay, RXRβ (Schneider SL-3 cells, luciferase reporter)
conditionSummary: read-out: Activation EC50 RXR β
pEC50: −log10 of the molar value.
measureName: pEC50

> print(dat)
                                   molecule  sign  result
1  CC1=C(/C=C/c2sccc2/C=C/C(C)=C/C(=O)O)C(C)(C)CCC1     =    7.30
2  CC(/C=C/[C@@H]1C[C@@H]1c1ccc2c(c1)C(C)(C)CCC2(C)C)=C\C(=O)O (stereo in doubt)     =    7.55
3  CC1=C(/C=C/C2=C(/C=C/C(C)=C/C(=O)O)CCC2)C(C)(C)CCC1     =    6.57
4  CC(/C=C/C1=C(c2ccc3c(c2)C(C)(C)CCC3(C)C)CCCC1)=C\C(=O)O     =    5.73
5  CC(/C=C/c1ccccc1-c1ccc2c(c1)C(C)(C)CCC2(C)C)=C\C(=O)O     =    6.48
6  C/C(=C/C=C/C(C)=C/C(=O)O)c1cc2c(cc1C)C(C)(C)CCCC2     =    7.11
7  CCCOc1cc2c(cc1[C@@H]1C[C@@H]1/C=C/C(C)=C/C(=O)O)C(C)(C)CCC2(C)C (racemic)     <    5.00
8  CC(/C=C/C1=C(c2ccc3c(c2)C(C)(C)CCC3(C)C)CCC1)=C\C(=O)O     =    7.22

* * *

measuredTarget: RARβ (Homo sapiens, UniProt P10826)
Sequence (P10826 183-417 limits assumed): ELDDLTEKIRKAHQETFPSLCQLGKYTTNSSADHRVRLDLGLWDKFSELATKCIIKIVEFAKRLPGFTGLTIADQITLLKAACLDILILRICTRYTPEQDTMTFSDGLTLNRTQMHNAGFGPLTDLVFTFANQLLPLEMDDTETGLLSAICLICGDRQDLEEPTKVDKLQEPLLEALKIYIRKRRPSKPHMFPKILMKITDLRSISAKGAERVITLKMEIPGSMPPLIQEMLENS
testDescription: Retinoid binding assay, RARβ
Set-up: The DEF domains of RAR's and the full length RXR's, expressed in E.coli; made in house; host or cells: E. coli
conditionSummary: read-out: Binding Affinity IC50 RAR β
pIC50: −log10 of the molar value.
measureName: pIC50

> print(dat)
                            structurestring  result
1  CC1=C(/C=C/C2=C(/C=C/C(C)=C/C(=O)O)CCCCC2)C(C)(C)CCC1  < 5.00
2  CC(/C=C/c1ccccc1-c1ccc2c(c1)C(C)(C)CCC2(C)C)=C\C(=O)O  < 5.00
3  CC(/C=C/c1sccc1-c1ccc2c(c1)C(C)(C)CCC2(C)C)=C\C(=O)O    5.42
4  CCCCOc1c(\C(C)=C/C=C/C(C)=C/C(=O)O)cc(C(C)(C)C)cc1C(C)(C)C  < 5.00
5  CCCOc1cc2c(cc1\C(C)=C/C=C/C(C)=C/C(=O)O)C(C)(C)CCC2(C)C    5.46
6  CC(/C=C/C1=C(c2ccc3c(c2)C(C)(C)CCC3(C)C)CCCC1)=C\C(=O)O  < 5.00

* * *

measuredTarget: RXRα Homodimer (Homo sapiens)
Sequence (P19793 whole entry): as the sequence (P19793 whole entry) above
testDescription: RXRα homodimer activation (transactivation) assay
measureName: EC50 (µM)

> print(dat)
                                   molecule  unitspec  sign  result
1  CCCCOc1c(\C(C)=C/C=C/C(C)=C/C(=O)O)cc(C(C)(C)C)cc1C(C)(C)C [Compound 15]        µM     >      10
2  CCCCCCCOc1c(\C(C)=C/C=C/C(C)=C/C(=O)O)cc(C(C)C)cc1C(C)C [Compound 19]        µM     >      10
3  CCOc1c(\C(C)=C/C=C/C(C)=C/C(=O)O)cc(C(C)(C)C)cc1C(C)(C)C [Compound 21]        µM     >      10
4  C/C(=C/C=C/C(C)=C/C(=O)O)c1cc2c(cc1C)C(C)(C)CCCC2 [Compound 13]        µM     =  0.0015
5  CC(/C=C/C1=C(c2ccc3c(c2)C(C)(C)CCC3(C)C)CCCC1)=C\C(=O)O [Compound 6]        µM     =   0.019

* * *

testDescription: Pharmacokinetics, daily oral gavage for 14 days in mice
conditionSummary: mouse, in vivo, 100 mg/kg, oral
measureName: AUC (µg·h/mL)

> print(dat)
                            structurestring  measurename  result
1  CCCCOc1c(\C(C)=C/C=C/C(C)=C/C(=O)O)cc(C(C)(C)C)cc1C(C)(C)C          AUC    25.7
